# methodDescription: Oral bioavailability in Sprague-Dawley rat at 10 mg/kg
# Format: ADME, organism-based
# testConditions: in vivo
Overview of recorded bioavailability for various molecules
Numeric answer only, unit % assumed.

Recorded bioavailability, per entry:
C=C[C@@H]1C[C@]1(NC(=O)[C@@H]1C[C@@H](Oc2cc(-c3nc(C(C)C)cs3)nc3c(Cl)c(OCCOC)ccc23)[C@H]2CC[C@H](C(C)C)C(=O)N21)C(=O)NS(=O)(=O)C1CC1 21
C=C[C@@H]1C[C@]1(NC(=O)[C@@H]1C[C@@H](Oc2cc(-c3nc(C(C)C)cs3)nc3c(C)c(OC)ccc23)[C@H]2CC[C@H](C(C)C)C(=O)N21)C(=O)NS(=O)(=O)C1CC1 44

The recorded bioavailability for entry C=C[C@@H]1C[C@]1(NC(=O)[C@@H]1C[C@@H](Oc2cc(-c3nc(C(C)C)cs3)nc3c(Cl)c(OCCN4CCOCC4)ccc23)[C@H]2CC[C@H](C(C)C)C(=O)N21)C(=O)NS(=O)(=O)C1CC1 equals 35

---

# methodDescription: Mean residence time in Sprague-Dawley rat at 1 mg/kg, iv
# Type: ADME, organism-based
# Design: dose 1 mg/kg, route intravenous
# testConditions: in vivo
recordedMetric: MRT (min)
Give the value in min but do not write min after it.

Below, 2 molecules whose answers are already recorded.
C=C[C@@H]1C[C@]1(NC(=O)[C@@H]1C[C@@H](Oc2cc(-c3nc(C(C)C)cs3)nc3c(C)c(OC)ccc23)[C@H]2CC[C@H](C(C)C)C(=O)N21)C(=O)NS(=O)(=O)C1CC1 52.8
C=C[C@@H]1C[C@]1(NC(=O)[C@@H]1C[C@@H](Oc2cc(-c3nc(C(C)C)cs3)nc3c(Cl)c(OCCN4CCOCC4)ccc23)[C@H]2CC[C@H](C(C)C)C(=O)N21)C(=O)NS(=O)(=O)C1CC1 44.4

Consider now this further molecule.
Form field MRT, entry C=C[C@@H]1C[C@]1(NC(=O)[C@@H]1C[C@@H](Oc2cc(-c3nc(C(C)C)cs3)nc3c(Cl)c(OCCOC)ccc23)[C@H]2CC[C@H](C(C)C)C(=O)N21)C(=O)NS(=O)(=O)C1CC1 : 75.6

---

# methodDescription: Clearance in Sprague-Dawley rat at 1 mg/kg, iv
# Assay type: ADME, organism-based
# Design: dose 1 mg/kg, route intravenous
# testConditions: in vivo
Listed below: clearance values for each entry.
// return numeric value only (unit: mL/min/kg, not printed)

Lab note: measured clearance of C=C[C@@H]1C[C@]1(NC(=O)[C@@H]1C[C@@H](Oc2cc(-c3nc(C(C)C)cs3)nc3c(Cl)c(OCCN4CCOCC4)ccc23)[C@H]2CC[C@H](C(C)C)C(=O)N21)C(=O)NS(=O)(=O)C1CC1 was 26.2

clearance in this record for C=C[C@@H]1C[C@]1(NC(=O)[C@@H]1C[C@@H](Oc2cc(-c3nc(C(C)C)cs3)nc3c(C)c(OC)ccc23)[C@H]2CC[C@H](C(C)C)C(=O)N21)C(=O)NS(=O)(=O)C1CC1 : 14.8

// field: clearance; key: C=C[C@@H]1C[C@]1(NC(=O)[C@@H]1C[C@@H](Oc2cc(-c3nc(C(C)C)cs3)nc3c(Cl)c(OCCOC)ccc23)[C@H]2CC[C@H](C(C)C)C(=O)N21)C(=O)NS(=O)(=O)C1CC1 ; value = 11.2

---

# methodDescription: Lipophilicity, log D of the compound
# Type: physicochemical
# testConditions: octanol/water
Below, each entry is listed with its recorded logD.
I'd appreciate a reply containing only the number, no unit.

Record excerpt, results attached:
C=C[C@@H]1C[C@]1(NC(=O)[C@@H]1C[C@@H](Oc2cc(-c3nc(C(C)C)cs3)nc3c(Cl)c(OCCN4CCOCC4)ccc23)[C@H]2CC[C@H](C(C)C)C(=O)N21)C(=O)NS(=O)(=O)C1CC1 3.26
C=C[C@@H]1C[C@]1(NC(=O)[C@@H]1C[C@@H](Oc2cc(-c3nc(C(C)C)cs3)nc3c(Cl)c(OC)ccc23)[C@H]2CC[C@H](C(C)C)C(=O)N21)C(=O)NS(=O)(=O)C1CC1 3.85
C=C[C@@H]1C[C@]1(NC(=O)[C@@H]1C[C@@H](Oc2cc(-c3nc(C(C)C)cs3)nc3c(Cl)c(OCCOC)ccc23)[C@H]2CC[C@H](C(C)C)C(=O)N21)C(=O)NS(=O)(=O)C1CC1 3.54

Read the next record carefully.
// recorded logD for C=C[C@@H]1C[C@]1(NC(=O)[C@@H]1C[C@@H](Oc2cc(-c3nc(C(C)C)cs3)nc3c(C)c(OC)ccc23)[C@H]2CC[C@H](C(C)C)C(=O)N21)C(=O)NS(=O)(=O)C1CC1 : 4.5
